Values from ChEMBL document CHEMBL1146344

- assay: Cytotoxicity against MT4 cells
- Assay type: cell-based
- particulars: human
property-name: CC50

Returns the measured CC50 for the input molecule. Input: Fc1cccc(F)c1C1SCc2nc3ccccc3n21 (stereo unspecified) 19.2 µM

====

- assay: Cytotoxicity against CEM cells
- Format: cell-based
- particulars: human, CEM (CCRF-CEM) cells
property-name: CC50
Numeric answer plus unit only.

Reported CC50, compound Fc1cccc(F)c1C1SCc2nc3ccccc3n21 (stereo unspecified) [THIAZOLOBENZIMIDAZOLE] : ____ 50 µM
